# Target Or System: Microtubule-associated protein tau (Homo sapiens) (UniProt P10636)
# Sequence (P10636 561-689 P618L limits assumed): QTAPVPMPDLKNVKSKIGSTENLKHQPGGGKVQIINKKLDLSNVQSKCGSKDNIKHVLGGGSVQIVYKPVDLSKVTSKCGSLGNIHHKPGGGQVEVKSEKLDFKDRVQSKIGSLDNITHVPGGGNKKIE
# Method Notes: qHTS for Inhibitors of Tau Fibril Formation, Thioflavin T Binding; further: nearly all actives have a fitted effect of over 55% in size
# Experimental Parameters: recombinant tau K18 P301L, heparin-induced fibrillization, ThT fluorescence; series mostly up to 57.4 µM
The campaign covered roughly 270,000 compounds. About 5,800 (2.1%) were called active. Inconclusive results (about 16%) are left out. The call rests on the fitted dose curve; in most records, active means well fitted inhibition curve with a large enough effect; inconclusive means small, poorly fitted or top-dose-only effect; inactive means flat fitted curve, though single readings scatter. Many of the other results were omitted from the sample, so actives are more common in it than they were.
Outcome codes: active, inactive

{"Substance Smiles": "CCN(CC)c1ccc(NC(=O)CN2C(=O)c3cccnc3Oc3ccc(Cl)cc32)c(C)c1", "Label Class": "inactive"}
{"Substance Smiles": "O=C1C(Cl)=C(N2CCOCC2)C(=O)N1c1ccccc1", "Label Class": "active"}
{"Substance Smiles": "CCc1nc2onc(C)c2c(=O)n1CC(=O)O", "Label Class": "inactive"}
{"Substance Smiles": "CCC(=O)Nc1c(C(=O)N2CCN(c3ccc(F)cc3)CC2)oc2ccccc12", "Label Class": "inactive"}
{"Substance Smiles": "CCOc1ccc(NC(=O)c2cn(C3CCCCC3)c(=O)c3c2c2ccccc2n3C)cc1", "Label Class": "inactive"}
{"Substance Smiles": "c1ccc(-n2nnnc2N2CCOCC2)cc1", "Label Class": "inactive"}
{"Substance Smiles": "Cc1ccc(-c2nc(C)sc2CC(=O)O)cc1", "Label Class": "inactive"}
{"Substance Smiles": "O=C(O)Cc1sc(-c2ccc(C(=O)O)cc2)nc1-c1ccccc1", "Label Class": "inactive"}
{"Substance Smiles": "C/C(=N/Nc1nc(-c2ccccc2)c(CC(=O)O)s1)c1ccccc1", "Label Class": "active"}
{"Substance Smiles": "O=C(Cn1ncn2nc(-c3cccs3)cc2c1=O)NCc1cccc(Br)c1", "Label Class": "inactive"}
{"Substance Smiles": "O=c1c(NCc2cccs2)nccn1-c1ccccc1", "Label Class": "inactive"}
{"Substance Smiles": "O=[N+]([O-])c1cc(-c2nc(-c3ccccc3)no2)ccc1NCc1ccco1", "Label Class": "inactive"}
{"Substance Smiles": "CN(C)S(=O)(=O)c1cccc(C(=O)Nc2cccnc2)c1", "Label Class": "inactive"}
{"Substance Smiles": "O=C(c1cccnc1)N(c1cc2sc(=O)oc2c2ccccc12)S(=O)(=O)c1ccccc1", "Label Class": "active"}
{"Substance Smiles": "CCOC(=O)c1cc(-c2ccccc2)n(-c2cccc(C(=O)Nc3cc(OC)cc(OC)c3)c2)c1C", "Label Class": "inactive"}

====

# Target Or System: Microtubule-associated protein tau (Homo sapiens) (UniProt P10636)
# Method Notes: qHTS for Inhibitors of Tau Fibril Formation, Thioflavin T Binding; further: nearly all actives have a fitted effect of over 55% in size
# Experimental Parameters: recombinant tau K18 P301L, heparin-induced fibrillization, ThT fluorescence; series mostly up to 57.4 µM
Hit rate of the full screen: of about 270,000 compounds, about 5,800 (2.1%) were called active. About 16% were inconclusive and are not listed. The call rests on the fitted dose curve; in most records, active means well fitted inhibition curve with a large enough effect; inconclusive means small, poorly fitted or top-dose-only effect; inactive means flat fitted curve, though single readings scatter. This excerpt belongs to a sample that is enriched for actives.
Outcome codes: y for active, n for inactive

{"Compound": "COc1ccc(NC(=O)CSc2nc3ccccc3n2CC(=O)N2CCCCC2C)cc1 (stereo unspecified)", "Label Class": "n"}
{"Compound": "O=C(CSc1nc2ccccc2s1)Nc1ccc(C(=O)O)cc1", "Label Class": "n"}
{"Compound": "CCOc1ccc(/C=N/Nc2nncc(-c3ccccc3)n2)cc1OC", "Label Class": "y"}
{"Compound": "COc1ccc(-c2csc(Nc3ccc(O)cc3)n2)cc1", "Label Class": "y"}
{"Compound": "O=C(NCc1cccnc1)C(=O)Nc1nc(-c2ccccc2)cs1", "Label Class": "n"}
{"Compound": "O=C(Nc1ccccc1Cl)/C(Cl)=C(\\Cl)S(=O)c1ccccc1 (stereo unspecified)", "Label Class": "y"}
{"Compound": "CCOc1ccc(/C=N/NC(=O)C(C)Sc2ccccn2)cc1OCC (stereo unspecified)", "Label Class": "n"}
{"Compound": "CC(C)(C)c1ccc(C(=O)Nc2ccc3c(c2)CCCN3C(=O)c2cccs2)cc1", "Label Class": "n"}
{"Compound": "O=C(Nc1ccccc1Cl)c1ccc2nsnc2c1", "Label Class": "n"}
{"Compound": "O=C(CSc1nc2c(c(=O)[nH]1)CN(Cc1ccc3c(c1)OCO3)CC2)Nc1cc(F)ccc1F", "Label Class": "n"}
{"Compound": "COCCN(CCOC)C(=S)Nc1ccccc1Cl", "Label Class": "n"}

====

# Target Or System: Microtubule-associated protein tau (Homo sapiens)
# Method Notes: qHTS for Inhibitors of Tau Fibril Formation, Thioflavin T Binding; further: nearly all actives have a fitted effect of over 55% in size
# Experimental Parameters: recombinant tau K18 P301L, heparin-induced fibrillization, ThT fluorescence; series mostly up to 57.4 µM
Hit rate of the full screen: of about 270,000 compounds, about 5,800 (2.1%) were called active. About 16% were inconclusive and are not listed. Calls come from the whole dose curve; as a rule, active = well fitted inhibition curve with a large enough effect; inconclusive = small, poorly fitted or top-dose-only effect; inactive = flat fitted curve, though single readings scatter. The sample holds actives, similar compounds and a random draw of the others, so the mix is not that of the screen.
Outcome codes: active, inactive

{"Compound": "COc1ccc(N2CCN(C(=O)CSc3ncnc4c3cnn4-c3ccc(OC)cc3)CC2)cc1", "Label Class": "inactive"}
{"Compound": "O=C(CCc1ccccc1)NCc1ccc2c(c1)CCN2C(=O)c1ccccc1", "Label Class": "inactive"}
{"Compound": "CCOc1ccc(NC(=O)CCC(=O)N2CC(C)Oc3ccc(C)cc32)cc1 (stereo not given)", "Label Class": "inactive"}
{"Compound": "COc1ccc(N2CCN(C(C)=C3C(=O)c4ccccc4C3=O)CC2)cc1", "Label Class": "inactive"}
{"Compound": "CC(=O)Nc1cccc(NC(=O)CSc2cn(CC(=O)N3CCCC3)c3ccccc23)c1", "Label Class": "inactive"}
{"Compound": "CCOC(=O)c1sc(=S)n2c1[nH]c(=O)c1ccc(C(=O)OC)cc12", "Label Class": "active"}
{"Compound": "CCOC(=O)c1sc(NC(=O)c2ccncc2)nc1C", "Label Class": "inactive"}
{"Compound": "Cc1ccc(NC(=O)c2ccc(CN3CC(=O)N4CCCCC4C3=O)cc2)c(Cl)c1 (stereo not given)", "Label Class": "inactive"}
{"Compound": "CSc1ccccc1NC(=O)CN(C)CC(=O)Nc1ccc(Cl)cc1[N+](=O)[O-]", "Label Class": "inactive"}
{"Compound": "CCOC(=O)c1sc(=S)n(-c2cccc(OC)c2)c1N", "Label Class": "inactive"}

====

# Target Or System: Microtubule-associated protein tau (Homo sapiens) (UniProt P10636)
# Method Notes: qHTS for Inhibitors of Tau Fibril Formation, Thioflavin T Binding; further: nearly all actives have a fitted effect of over 55% in size; further: potency means the concentration at half of the fitted maximal effect
# Experimental Parameters: recombinant tau K18 P301L, heparin-induced fibrillization, ThT fluorescence; series mostly up to 57.4 µM
Screen size: about 270,000 compounds; about 5,800 (2.1%) were called active. About 16% were inconclusive and are not listed. The sample holds actives, similar compounds and a random draw of the others, so the mix is not that of the screen.

{"Compound": "CCc1ccc(NC(=O)c2cc(S(=O)(=O)N3CCCC(C)C3)cn2C)cc1 (stereo not given)", "Potency": "inactive"}
{"Compound": "COC(=O)C1=C(C)NC(=O)NC1/C=C/c1ccccc1 (stereo not given)", "Potency": "inactive"}
{"Compound": "COC(=O)C1=C(C)NC2=C(C(=O)c3ccccc32)C1c1ccc(-c2ccc(C(=O)O)cc2)o1 (stereo not given)", "Potency": "8.91 µM (active)"}
{"Compound": "Cc1ccc(-c2cn3c(n2)sc2cc(C(=O)NCCCc4ccccc4)ccc23)cc1", "Potency": "inactive"}
{"Compound": "COc1ccc(NS(=O)(=O)c2cc3c(cc2C)N(C(C)=O)CCO3)cc1", "Potency": "inactive"}

====

# Target Or System: Microtubule-associated protein tau (Homo sapiens) (UniProt P10636)
# Method Notes: qHTS for Inhibitors of Tau Fibril Formation, Thioflavin T Binding; further: nearly all actives have a fitted effect of over 55% in size
# Experimental Parameters: recombinant tau K18 P301L (four-repeat tau fragment), heparin-induced fibrillization, ThT fluorescence; series mostly up to 57.4 µM
Out of some 270,000 compounds screened, about 5,800 (2.1%) were called active. Roughly 16% stayed inconclusive and do not appear here. Calls come from the whole dose curve; as a rule, active = well fitted inhibition curve with a large enough effect; inconclusive = small, poorly fitted or top-dose-only effect; inactive = flat fitted curve, though single readings scatter. The entries come from a sample that favours actives as a whole.
Outcome codes: Yes (active), No (inactive)

{"Compound": "Cc1ccc2c(c1)-c1c(cnn1CC(=O)Nc1ccccc1C#N)CO2", "Label Class": "No"}
{"Compound": "CC(=O)c1cc(C#N)c(SCC(=O)Nc2nccs2)nc1C", "Label Class": "Yes"}
{"Compound": "CCSc1ncnc2c(C#N)c3n(c12)CCCCC3", "Label Class": "No"}
{"Compound": "S=C(NCCc1ccccc1)N1CCCCC1", "Label Class": "No"}
{"Compound": "CCSC1=C(C#N)C(=O)n2c1cc1c2CCCC1", "Label Class": "Yes"}
{"Compound": "COc1ccc(OC)c(NC(=O)CSC2=Nc3ccccc3C3=NC(CC(=O)NCc4ccc(F)cc4)C(=O)N23)c1 (stereo unspecified)", "Label Class": "No"}
{"Compound": "Cc1cc(C)cc(NC(=O)Cn2nc(N3CCN(c4ccccc4)CC3)ccc2=O)c1", "Label Class": "No"}
{"Compound": "CN(C)c1nc(=Nc2cccc(Cl)c2)ss1", "Label Class": "Yes"}
{"Compound": "COc1ccccc1-c1nnc(SCC(N)=O)o1", "Label Class": "No"}
{"Compound": "Cc1ccc(-c2nc(Cn3c(=O)cc(-c4ccccc4)c4c(C)nn(C)c43)c(C)o2)cc1", "Label Class": "No"}
{"Compound": "COc1cccc(N2CCN(S(=O)(=O)c3ccc4c(c3)CCCN4C(C)=O)CC2)c1", "Label Class": "No"}
